- assay-remarks: Cmax in C57Bl/6 mouse at 2 mg/kg, iv measured after 480 mins by LC-MS/MS analysis
- Assay type: ADME, organism-based
- condition-set: in vivo
measured-property: Cmax (nM)
Express the result in nM but write the number alone.

(Q) Using known records, supply Cmax for "C[C@@H]1CN(c2cc(-c3n[nH]c4ccc(OC5(C)CC5)cc34)ncn2)C[C@H](C)O1"
(A) 716

* * *

- assay-remarks: AUC in C57Bl/6 mouse at 10 mg/kg, po measured after 480 mins by LC-MS/MS analysis
- Format: ADME, organism-based
- condition-set: in vivo
measured-property: AUC at 8 h (µM·h)
Reply numerically in µM·h, unit not repeated.

(Q) Give the measured AUC at 8 h for C[C@@H]1CN(c2cc(-c3n[nH]c4ccc(OC5(C)CC5)cc34)ncn2)C[C@H](C)O1 [MLi-2]
(A) 1.5

* * *

- assay-remarks: Unbound fraction in C57Bl/6 mouse plasma
- Format: ADME, cell-free
measured-property: fraction unbound

(Q) Give me measured fraction unbound, please, for this compound: "C[C@@H]1CN(c2cc(-c3n[nH]c4ccc(OC5(C)CC5)cc34)ncn2)C[C@H](C)O1"
(A) 0.008

* * *

- system-under-test: Mitogen-activated protein kinase kinase kinase 5 (Homo sapiens)
- Sequence (Q99683 whole entry): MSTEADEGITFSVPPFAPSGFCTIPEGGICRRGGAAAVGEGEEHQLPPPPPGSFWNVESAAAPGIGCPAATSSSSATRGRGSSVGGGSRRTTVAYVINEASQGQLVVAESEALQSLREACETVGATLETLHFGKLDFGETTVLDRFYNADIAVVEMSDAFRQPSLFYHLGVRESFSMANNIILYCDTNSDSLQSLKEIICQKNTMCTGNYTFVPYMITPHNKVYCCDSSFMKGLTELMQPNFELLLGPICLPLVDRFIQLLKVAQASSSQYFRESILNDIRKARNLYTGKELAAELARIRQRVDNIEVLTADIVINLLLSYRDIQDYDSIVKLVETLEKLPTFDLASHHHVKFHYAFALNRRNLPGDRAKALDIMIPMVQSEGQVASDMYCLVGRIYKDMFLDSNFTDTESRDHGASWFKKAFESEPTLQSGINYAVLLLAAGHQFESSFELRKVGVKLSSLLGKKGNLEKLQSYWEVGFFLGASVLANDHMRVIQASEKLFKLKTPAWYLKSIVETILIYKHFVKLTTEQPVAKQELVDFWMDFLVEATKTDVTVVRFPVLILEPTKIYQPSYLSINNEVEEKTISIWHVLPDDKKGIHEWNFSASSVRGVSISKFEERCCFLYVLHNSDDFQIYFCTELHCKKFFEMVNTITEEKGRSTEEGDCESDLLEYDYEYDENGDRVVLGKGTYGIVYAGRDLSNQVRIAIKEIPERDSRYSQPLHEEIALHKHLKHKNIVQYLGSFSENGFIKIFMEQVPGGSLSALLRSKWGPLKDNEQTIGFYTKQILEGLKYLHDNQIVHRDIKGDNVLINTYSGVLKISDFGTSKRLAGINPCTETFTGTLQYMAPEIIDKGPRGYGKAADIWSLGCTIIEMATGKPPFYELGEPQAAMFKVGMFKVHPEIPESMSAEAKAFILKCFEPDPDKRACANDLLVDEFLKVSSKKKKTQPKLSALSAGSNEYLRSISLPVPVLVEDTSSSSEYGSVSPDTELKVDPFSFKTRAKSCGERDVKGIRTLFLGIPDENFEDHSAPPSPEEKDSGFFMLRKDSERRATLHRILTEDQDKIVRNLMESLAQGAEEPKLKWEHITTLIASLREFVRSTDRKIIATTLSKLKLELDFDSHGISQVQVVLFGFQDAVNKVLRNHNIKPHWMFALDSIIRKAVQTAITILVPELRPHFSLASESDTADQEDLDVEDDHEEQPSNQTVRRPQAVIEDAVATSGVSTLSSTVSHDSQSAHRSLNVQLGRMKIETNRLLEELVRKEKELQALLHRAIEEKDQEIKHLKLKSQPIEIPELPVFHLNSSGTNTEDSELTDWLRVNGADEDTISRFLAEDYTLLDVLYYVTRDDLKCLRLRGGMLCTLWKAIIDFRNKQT
- assay-remarks: Inhibition of MAP3K5 (unknown origin)
measured-property: IC50 (nM)
Please reply with the bare figure in nM and do not write the unit itself.

(Q) Give the reported IC50 for this compound. "C[C@@H]1CN(c2cc(-c3n[nH]c4ccc(OC5(C)CC5)cc34)ncn2)C[C@H](C)O1"
(A) 428
